target: human TACE (Homo sapiens (Human), UniProt P78536); conditions: read-out: TACE potency IC50
Sequence (P78536 whole entry, looked up, change not shown): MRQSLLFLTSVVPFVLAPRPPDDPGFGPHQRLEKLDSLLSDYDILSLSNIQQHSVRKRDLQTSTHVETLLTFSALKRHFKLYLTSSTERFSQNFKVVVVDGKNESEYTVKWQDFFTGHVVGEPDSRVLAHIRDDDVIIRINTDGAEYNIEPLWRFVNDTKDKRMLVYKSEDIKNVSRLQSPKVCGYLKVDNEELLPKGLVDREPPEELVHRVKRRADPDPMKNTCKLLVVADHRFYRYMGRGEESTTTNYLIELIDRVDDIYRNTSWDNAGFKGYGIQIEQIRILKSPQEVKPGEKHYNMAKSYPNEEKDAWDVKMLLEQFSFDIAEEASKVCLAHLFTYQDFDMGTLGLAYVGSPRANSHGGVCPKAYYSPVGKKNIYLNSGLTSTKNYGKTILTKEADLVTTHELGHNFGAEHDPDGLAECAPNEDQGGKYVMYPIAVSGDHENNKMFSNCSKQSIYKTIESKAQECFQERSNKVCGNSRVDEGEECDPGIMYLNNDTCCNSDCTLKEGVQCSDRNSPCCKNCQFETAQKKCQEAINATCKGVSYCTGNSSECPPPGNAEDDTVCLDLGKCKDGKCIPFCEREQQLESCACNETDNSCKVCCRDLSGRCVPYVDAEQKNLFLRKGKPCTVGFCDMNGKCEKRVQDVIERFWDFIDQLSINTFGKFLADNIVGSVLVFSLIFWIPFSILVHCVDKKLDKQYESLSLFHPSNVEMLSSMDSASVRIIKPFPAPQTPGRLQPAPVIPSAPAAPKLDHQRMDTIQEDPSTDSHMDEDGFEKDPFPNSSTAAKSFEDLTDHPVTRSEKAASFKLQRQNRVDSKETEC
test-readout: IC50

Worked examples, 5 compounds total:
In [3]: df
Out[3]:
                                   compound  experimental_value
0  O=C1NC(=O)C(CCC(=O)N2CCN(c3ccc(Cl)c(F)c3)CC2)(c2ccccc2)N1 (centres unmarked)           > 2790 nM
1  C[C@H]1CN(C(=O)CCC2(C3CC3)NC(=O)NC2=O)CCN1c1cc(F)cc(F)c1 (some centres unmarked)          > 20000 nM
2  COCC(CC1(C)NC(=O)NC1=O)C(=O)N1CCN(c2cc(Cl)cc(Cl)c2)CC1 (centres unmarked)              368 nM
3  CC1CN(C(=O)CCC2(C3CC3)NC(=O)NC2=O)CCN1c1cc(Cl)cc(Cl)c1 (centres unmarked)           > 4000 nM
4  C[C@H]1CN(C(=O)CCC2(c3ccccn3)NC(=O)NC2=O)CCN1c1ccc(Cl)c(Cl)c1 (some centres unmarked) [compound 458]             2380 nM

Value sought for every listed compound: IC50.
1. CC(CC1(C2CC2)NC(=O)NC1=O)C(=O)N1CCN(c2ccc(Cl)cc2)[C@@H](C)C1 (some centres unmarked) [compound 412]
2. COCC1(CC(C)C(=O)N2CCN(c3cc(F)c(Cl)c(F)c3)CC2)NC(=O)NC1=O (centres unmarked) [compound 448]
3. CC(C)(C)OC(=O)CC1(CCC(=O)N2CCN(c3cc(Cl)cc(Cl)c3)CC2)NC(=O)NC1=O (centres unmarked)

Response:
1. > 20000 nM
2. 2990 nM
3. > 4000 nM

----------
biological target: rnADAMTS-5 (1-564-6H) (Rattus norvegicus, UniProt Q6TY19)
For each entry below, report its IC50 value.
One number for each entry, in nM.

Worked examples, 6 compounds total:
In [3]: df
Out[3]:
                                   compound  experimental_value
0  Cc1cccc(N2CCN(C(=O)CCC3(c4cccnc4)NC(=O)NC3=O)CC2)c1C (centres unmarked) [compound 69]                 185
1  CSCCC1(CC(C)C(=O)N2CCN(c3cc(Cl)cc(Cl)c3)CC2)NC(=O)NC1=O (centres unmarked) [compound 197]                  21
2  O=C1Cc2cc(C3(CCC(=O)N4CCN(c5cccc(Cl)c5)CC4)NC(=O)NC3=O)ccc2N1 (centres unmarked) [compound 153]                 114
3  COC(CC1(C)NC(=O)NC1=O)C(=O)N1CCN(c2cc(F)cc(Cl)c2)[C@@H](C)C1 (some centres unmarked) [compound 295]                  71
4  Cc1ccc(C)c(N2CCN(C(=O)CCC3(c4ccccn4)NC(=O)NC3=O)CC2)c1 (centres unmarked) [compound 87]                 113
5  CC(CC1(C2CC2)NC(=O)NC1=O)C(=O)N1CCN(c2cccc(Cl)c2)CC1 (centres unmarked) [compound 121]                  24

Value sought for every listed compound: IC50.
1. CC1(CCC(=O)N2CCN(c3cc(Cl)cc(Cl)c3)CC2)NC(=O)NC1=O (centres unmarked) [compound 40]
2. C[C@H]1CN(C(=O)CCC2(C3CC3)NC(=O)NC2=O)CCN1c1cc(F)cc(F)c1 (some centres unmarked) [compound 160]
3. O=C1NC(=O)C(CCC(=O)N2CCN(c3cccc(F)c3)CC2)(c2ccccn2)N1 (centres unmarked) [compound 103]
4. Cc1cccc(N2CCN(C(=O)CCC3(C)NC(=O)NC3=O)CC2)c1C (centres unmarked) [compound 11]
5. CC(CC1(C)NC(=O)NC1=O)C(=O)N1CCN(c2ccc(F)c(F)c2)CC1 (centres unmarked) [compound 211]
6. Cc1c(F)cccc1N1CCN(C(=O)CCC2(C3CC3)NC(=O)NC2=O)CC1 (centres unmarked) [compound 99]

Response:
1. 234
2. 36
3. 24
4. 1170
5. 23
6. 116
